I'd be grateful if you could share measured half-maximal cytotoxic concentration (CC50) for these entries.
# Test system: human embryonic kidney (HEK293T) cells
# run-parameters: 24 h
# Method: The cells were cultured in high-glucose Dulbecco’s modified Eagle’s medium supplemented with 1% penicillin and streptomycin (antibiotics) and 10% fetal bovine serum and grown at 37 °C in a humidified atmosphere containing 5% CO2. One day prior to the experiment, 100 μL aliquots of human embryonic kidney (HEK293T) cells, at a concentration of 50,000 cells per mL, were seeded into each well of 96-well plates (5,000 cells per well). […]
Ends that are not written are not given here.

**Query** Report half-maximal cytotoxic concentration (CC50), nothing else, for this substance: MTKHAIAAKSLLKKWIISRPLNMKKKSSPFQKIRKMFKRFFK-OH [ATB25]
**Result** 5 to 6 µM

**Query** Report half-maximal cytotoxic concentration (CC50), nothing else, for this substance: MKLKKLIKFFAFAKGISLLSRRPVRKRTGGLLKKYLAWKYLRRR-OH [ATB6]
**Result** 20 to 100 µM

**Query** Report half-maximal cytotoxic concentration (CC50), nothing else, for this substance: MRIKLHLRLAFLRFRKKKSLSRLKPISKIRSK-OH [ATB76]
**Result** 9 to 12 µM

**Query** Report half-maximal cytotoxic concentration (CC50), nothing else, for this substance: MKILKKNMHNKILPMVSHKKWMMLIKRLKTLGRIKK-OH [ATB56]
**Result** 20 to 100 µM

**Query** Report half-maximal cytotoxic concentration (CC50), nothing else, for this substance: MSLKKIAKLLANKKVRKIAWMLISHPKFIKMLKNSIKRR-OH [ATB55]
**Result** 5 to 6 µM

====

# Test system: human embryonic kidney (HEK293T) cells
# run-parameters: 24 h
Ends that are not written are not given here.
I'd be grateful if you could share measured half-maximal cytotoxic concentration (CC50) for these entries.

**Query** Return reported half-maximal cytotoxic concentration (CC50) for target or system human embryonic kidney (HEK293T) cells, item MLGRKGLRSVWNGRLNVRKRRQNVRLRKNVRRKNVPKPSVWLI-OH [ATB39] .
**Result** 20 to 100 µM

**Query** Return reported half-maximal cytotoxic concentration (CC50) for target or system human embryonic kidney (HEK293T) cells, item MKKLIRNIIYSKLKFLWRWHRPLIIQRRNL-OH [ATB65] .
**Result** 5 to 6 µM

**Query** Return reported half-maximal cytotoxic concentration (CC50) for target or system human embryonic kidney (HEK293T) cells, item MIKVSKLVVAKKLNLRKKLKKYLKKPKLGKILLL-OH [ATB12] .
**Result** 20 to 100 µM

**Query** Return reported half-maximal cytotoxic concentration (CC50) for target or system human embryonic kidney (HEK293T) cells, item MLKLLKKLQMHLLKKLQKEKLLLNLQKKTLKRKRFRHA-OH [ATB61] .
**Result** 20 to 100 µM

**Query** Return reported half-maximal cytotoxic concentration (CC50) for target or system human embryonic kidney (HEK293T) cells, item MKKLKIKKLKIKKLKIKKLKIKNLKIKKLKIKNLKI-OH [ATB15] .
**Result** 9 to 12 µM

**Query** Return reported half-maximal cytotoxic concentration (CC50) for target or system human embryonic kidney (HEK293T) cells, item MTKLKMYLKKVRKNANNSTKQWKYGLPVRNAKLWNNFQPKK-OH [ATB51] .
**Result** 20 to 100 µM

**Query** Return reported half-maximal cytotoxic concentration (CC50) for target or system human embryonic kidney (HEK293T) cells, item MSLRKKLFVKTMLRVKIKKQSKQRLQKTKRLLQKLKRPWM-OH [ATB3] .
**Result** 20 to 100 µM

**Query** Return reported half-maximal cytotoxic concentration (CC50) for target or system human embryonic kidney (HEK293T) cells, item MFKTNLSRVSVKRLLIWVVWWLRLKKLKKKAKKFRKK-OH [ATB60] .
**Result** 9 to 12 µM

**Query** Return reported half-maximal cytotoxic concentration (CC50) for target or system human embryonic kidney (HEK293T) cells, item MLKGLKKFKWLKKLKRRLMELNELKKFKKLMELRS-OH [ATB13] .
**Result** 9 to 12 µM

**Query** Return reported half-maximal cytotoxic concentration (CC50) for target or system human embryonic kidney (HEK293T) cells, item MRSLKRQLLKHKAVKLSIKKWQFLRKLKLVPKRH-OH [ATB18] .
**Result** 9 to 12 µM

**Query** Return reported half-maximal cytotoxic concentration (CC50) for target or system human embryonic kidney (HEK293T) cells, item MLKLLSIKLKSKKKILRMTLTKLNKWLKTKKKWLRNLKTM-OH [ATB5] .
**Result** 9 to 12 µM
